Reported calcium oscillation score values follow for various sequences
molecular target: Tau; test: rat primary cortical neurons, FLIPR, 25 uM ASO
Bases are written 5' to 3'; sugars and linkages follow in the same order, as letters with counts (s phosphorothioate, o phosphodiester; PS: all linkages phosphorothioate). The collection does not say whether C is 5-methylated. l = locked nucleic acid (LNA); d = 2'-deoxy (DNA)

Field: example entries. Status: answers known.
AATTAACATATTTTTACCT (sugars l4 d11 l4, PS) :: 75.1 % of control
TCTTCAGGTCTGGCAT (sugars l3 d10 l3, PS) :: 39.1 % of control
CTCAGCTAAGACCCTCAGGT (sugars l3 d14 l3, PS) :: 31.2 % of control
CAACATTTGCACTCTC (sugars l4 d8 l4, PS) :: 67.7 % of control
CATCAGTCTTATCTCCC (sugars l2 d13 l2, PS) :: 54.7 % of control
CAAACCACTCTTATTCTTTA (sugars l4 d13 l3, PS) :: 68.5 % of control
CATGTCGATGCTGCCG (sugars l3 d10 l3, PS) :: 67.3 % of control
CAGTAACATCCATTTC (sugars l4 d8 l4, PS) :: 87.6 % of control
TTCCATCCTAAGTCAACC (sugars l3 d13 l2, PS) :: 70.6 % of control
TTTTTTAACTCCCAACTCTT (sugars l4 d14 l2, PS) :: 98.3 % of control

Fill in the blank: the reported calcium oscillation score of TTTTTCTCTCTTAACTTTAT (sugars l4 d12 l4, PS) is ____.
93.2 % of control

Fill in the blank: the reported calcium oscillation score of TACAGTCATTTCATTAC (sugars l4 d9 l4, PS) is ____.
64.9 % of control

Fill in the blank: the reported calcium oscillation score of CTTACTTTCTACTCAATTCC (sugars l2 d16 l2, PS) is ____.
60.6 % of control

---

target: Tau; experiment: rat primary cortical neurons, FLIPR, 25 uM ASO
Bases are written 5' to 3'; sugars and linkages follow in the same order, as letters with counts (s phosphorothioate, o phosphodiester; PS: all linkages phosphorothioate). The collection does not say whether C is 5-methylated. l = locked nucleic acid (LNA); d = 2'-deoxy (DNA)
Measure: calcium oscillation score

Field: example entries. Status: answers known.
TCAATTTCCCTGTTAAT (sugars l4 d11 l2, PS) :: 53.4 % of control
ACACCATCCAAGTCAAT (sugars l3 d10 l4, PS) :: 16.2 % of control
GCGACTTGTACACG (sugars l3 d8 l3, PS) :: 63.7 % of control
CAACTGATTCCATCACC (sugars l4 d11 l2, PS) :: 87.8 % of control

Fill in the blank: the reported calcium oscillation score of CAGCTAGTGGTGCCACCTGA (sugars l3 d14 l3, PS) is ____.
16.5 % of control

Fill in the blank: the reported calcium oscillation score of TTGTACACGATCTCCG (sugars l3 d10 l3, PS) is ____.
55.2 % of control

Fill in the blank: the reported calcium oscillation score of TGATATTATCCTTTGAGCCA (sugars l3 d14 l3, PS) is ____.
27.4 % of control

Fill in the blank: the reported calcium oscillation score of GGGACCCAATCTTCGACTGG (sugars l3 d14 l3, PS) is ____.
0 % of control

Fill in the blank: the reported calcium oscillation score of AAGAGGGCAGCAGGCC (sugars l3 d10 l3, PS) is ____.
73.1 % of control

Fill in the blank: the reported calcium oscillation score of TCAACTCTTAGCATCCA (sugars l4 d11 l2, PS) is ____.
37.5 % of control

Fill in the blank: the reported calcium oscillation score of CTTTATTTCCAAATTCACTT (sugars l5 d11 l4, PS) is ____.
143 % of control

Fill in the blank: the reported calcium oscillation score of TATTAATTCATAAATGACTA (sugars l3 d14 l3, PS) is ____.
40.3 % of control

Fill in the blank: the reported calcium oscillation score of GAATAACATTAACCCT (sugars l4 d8 l4, PS) is ____.
74.5 % of control

Fill in the blank: the reported calcium oscillation score of TTACCAATTATCTTTAAATT (sugars l4 d12 l4, PS) is ____.
61.9 % of control

Fill in the blank: the reported calcium oscillation score of CCTTACTTTCTACTCAAT (sugars l2 d12 l4, PS) is ____.
62.1 % of control

Fill in the blank: the reported calcium oscillation score of TTATTTCCAAATTCACTTTT (sugars l4 d11 l5, PS) is ____.
124 % of control

Fill in the blank: the reported calcium oscillation score of TAACCAACTTTCATCTACTT (sugars l3 d14 l3, PS) is ____.
47.2 % of control

Fill in the blank: the reported calcium oscillation score of TATTAATTATCTGCAC (sugars l3 d10 l3, PS) is ____.
27.1 % of control

Data provenance: the OligoGym collection
